Tested on: Tetranychus cinnabarinus
Assay remarks: Acaricidal activity against adult Tetranychus cinnabarinus (carmine spider mite) assessed as mortality after 72 hr by immersion method
Type: functional
Metric name: LC50 (µg/mL)
Field: numeric (µg/mL). Do not append units.

Worked cases, LC50 given:
                                   compound             target_entity  metric_name  measured_number
0  C=CC(=O)C1=C(c2c(C)cc(C)cc2C)C(=O)OC12CCCC2  Tetranychus cinnabarinus         LC50              101
1  Cc1cc(C)c(C2=C(C(=O)C(c3ccc(Cl)cc3)C(C)C)C3(CCCC3)OC2=O)c(C)c1 (stereo not given)  Tetranychus cinnabarinus         LC50              101

Lookup: Look up LC50: COc1ccc(C(=O)C2=C(c3c(C)cc(C)cc3C)C(=O)OC23CCCC3)cc1
Found: 1

Lookup: Query Cc1cc(C)c(C2=C(C(=O)/C=C/c3ccccc3)C3(CCCC3)OC2=O)c(C)c1 next
Found: 101

Lookup: Now give it for CCCC(=O)C1=C(c2c(C)cc(C)cc2C)C(=O)OC12CCCC2 too.
Found: 6.26

Lookup: And for CCCCC(=O)C1=C(c2c(C)cc(C)cc2C)C(=O)OC12CCCC2 ?
Found: 6.26

Lookup: Moving on to the next compound: Cc1cc(C)c(C2=C(C(=O)c3ccccc3C)C3(CCCC3)OC2=O)c(C)c1
Found: 101

Lookup: What do you have for CCCCCCC(=O)C1=C(c2c(C)cc(C)cc2C)C(=O)OC12CCCC2 ?
Found: 26

Lookup: For Cc1cc(C)c(C2=C(C(=O)CC(C)(C)C)C3(CCCC3)OC2=O)c(C)c1 then?
Found: 26

These measurements were taken from ChEMBL document CHEMBL3046710.
